This collection of values is drawn from ChEMBL document CHEMBL3045406.

Can you tell me log K for the items I'm about to list?
# Test Protocol: Hydrophobicity, log K of the compound
# Assay type: physicochemical
# Test Settings: octanol/water

INSERT INTO measurements (chem_smiles, result) VALUES
  ('CCc1cccc(NC(=O)N[C@H](C)c2ccccc2)c1', 0.489),
  ('Cc1ccc(NC(=O)NC(C)(C)c2ccccc2)cc1', 0.487),
  ('C[C@@H](NC(=O)Nc1ccccc1I)c1ccccc1', 0.502),
  ('C[C@H](NC(=O)Nc1ccccc1I)c1ccccc1', 0.502),
  ('COc1ccc(NC(=O)N[C@H](C)c2ccccc2)cc1', 0.211);

Hello, I would appreciate it if you could give log K for each entry below.
1. CCCc1ccc(NC(=O)N[C@@H](C)c2ccccc2)cc1
2. C[C@@H](NC(=O)Nc1ccc(I)cc1)c1ccccc1
3. C[C@@H](NC(=O)Nc1ccc(Cl)cc1)c1ccccc1
4. C[C@@H](NC(=O)Nc1cccc(I)c1)c1ccccc1
5. CC(=O)c1ccc(NC(=O)N[C@H](C)c2ccccc2)cc1

### Response
0.602
0.556
0.439
0.568
0.227

Hello, I would appreciate it if you could give log K for each entry below.
1. C[C@H](NC(=O)Nc1cc(Cl)cc(Cl)c1)c1ccccc1
2. C[C@H](NC(=O)Nc1cccc(Br)c1)c1ccccc1
3. C[C@@H](NC(=O)Nc1ccc(C(C)(C)C)cc1)c1ccccc1
4. CCOC(=O)c1ccccc1NC(=O)N[C@@H](C)c1ccccc1

### Response
[0.703, 0.512, 0.673, 0.667]
